measurement.target: SOS1-KRAS (Homo sapiens, UniProt Q07889)
Sequence (Q07889 whole entry, looked up, stated change not applied): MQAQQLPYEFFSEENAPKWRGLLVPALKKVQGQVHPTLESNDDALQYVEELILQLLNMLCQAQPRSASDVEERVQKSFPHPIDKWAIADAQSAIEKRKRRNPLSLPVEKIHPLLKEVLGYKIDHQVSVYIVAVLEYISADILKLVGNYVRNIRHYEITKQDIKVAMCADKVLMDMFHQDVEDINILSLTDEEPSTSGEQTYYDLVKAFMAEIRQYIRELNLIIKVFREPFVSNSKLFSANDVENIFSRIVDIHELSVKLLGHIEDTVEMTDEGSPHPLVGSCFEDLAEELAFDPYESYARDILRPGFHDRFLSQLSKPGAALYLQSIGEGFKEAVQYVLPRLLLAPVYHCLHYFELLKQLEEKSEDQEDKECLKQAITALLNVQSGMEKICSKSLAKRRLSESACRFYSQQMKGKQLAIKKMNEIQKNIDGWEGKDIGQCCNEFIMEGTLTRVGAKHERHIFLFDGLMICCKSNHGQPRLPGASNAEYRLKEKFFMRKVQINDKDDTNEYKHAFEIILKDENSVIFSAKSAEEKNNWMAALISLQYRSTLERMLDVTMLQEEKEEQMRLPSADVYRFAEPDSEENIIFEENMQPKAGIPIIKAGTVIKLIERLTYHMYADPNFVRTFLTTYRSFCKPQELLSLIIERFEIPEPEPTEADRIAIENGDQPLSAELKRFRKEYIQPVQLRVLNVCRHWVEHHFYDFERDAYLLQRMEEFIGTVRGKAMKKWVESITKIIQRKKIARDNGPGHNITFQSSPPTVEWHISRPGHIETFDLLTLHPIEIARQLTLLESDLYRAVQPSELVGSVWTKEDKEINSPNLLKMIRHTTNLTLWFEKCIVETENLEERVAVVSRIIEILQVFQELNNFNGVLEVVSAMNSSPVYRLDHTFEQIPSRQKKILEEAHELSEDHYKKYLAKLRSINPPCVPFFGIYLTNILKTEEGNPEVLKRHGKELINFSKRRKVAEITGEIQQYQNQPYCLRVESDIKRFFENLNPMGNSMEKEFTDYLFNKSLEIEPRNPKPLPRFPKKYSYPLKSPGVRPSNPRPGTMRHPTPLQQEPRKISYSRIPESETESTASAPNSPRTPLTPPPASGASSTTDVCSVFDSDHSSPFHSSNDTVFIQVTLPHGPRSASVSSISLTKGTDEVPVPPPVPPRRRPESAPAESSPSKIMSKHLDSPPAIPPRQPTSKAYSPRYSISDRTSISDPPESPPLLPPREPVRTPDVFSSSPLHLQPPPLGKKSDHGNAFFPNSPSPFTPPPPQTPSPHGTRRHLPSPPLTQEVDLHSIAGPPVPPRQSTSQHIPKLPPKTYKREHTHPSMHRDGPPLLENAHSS
test: Inhibition of human recombinant SOS1 (residue 564-1049)/KRAS G12C mutant protein-protein interaction at incubated for 25 degC for 60 mins by homogeneous time-resolved fluorescence (HTRF) method
pIC50: −log10 of the molar value.
Listing: pIC50 of selected molecules

>  <molecule>
CC(=O)N1CCN2c3cc4c(N[C@H](C)c5cccc(C(F)F)c5F)nc(C)nc4cc3OC[C@H]2C1

>  <pIC50>
8.20

$$$$
>  <molecule>
Cc1nc(N[C@H](C)c2cc(N)cc(C(F)(F)F)c2)c2cc3c(cc2n1)OC[C@H]1CN(C2CCOCC2)CCN31

>  <pIC50>
7.74

$$$$
>  <molecule>
CC(=O)N1CCN2c3cc4c(N[C@H](C)c5cccc(C(F)F)c5F)nc(C)nc4cc3OC[C@@H]2C1

>  <pIC50>
7.86

$$$$
>  <molecule>
Cc1nc(N[C@H](C)c2cc(N)cc(C(F)(F)F)c2)c2cc3c(cc2n1)OC[C@H]1CN(C2COC2)CCN31

>  <pIC50>
7.81

$$$$
>  <molecule>
CC(=O)N1CCOc2cc3nc(C)nc(N[C@H](C)c4cc(N)cc(C(F)(F)F)c4)c3cc21

>  <pIC50>
6.91

$$$$
>  <molecule>
Cc1nc(N[C@H](C)c2cc(N)cc(C(F)(F)F)c2)c2cc3c(cc2n1)OCCO3

>  <pIC50>
6.04

$$$$
>  <molecule>
CC(=O)N1CCN2c3cc4c(N[C@H](C)c5cccc(C(F)F)c5F)nc(C)nc4cc3OCC2C1 (stereo partly drawn)

>  <pIC50>
8.06

$$$$
>  <molecule>
CC(=O)N1CCN2c3cc4c(N[C@H](C)c5cc(N)cc(C(F)(F)F)c5)nc(C)nc4cc3OC[C@@H]2C1

>  <pIC50>
7.89

$$$$
>  <molecule>
CC(=O)N1CCN2c3cc4c(N[C@H](C)c5cccc(C(F)(F)C(C)(C)O)c5F)nc(C)nc4cc3OC[C@H]2C1

>  <pIC50>
7.90

$$$$
>  <molecule>
CC(=O)N1CCN2c3cc4c(N[C@H](C)c5cc(N)cc(C(F)(F)F)c5)nc(C)nc4cc3OC[C@H]2C1

>  <pIC50>
8.37

$$$$
>  <molecule>
CC(=O)N1CCN2c3cc4c(N[C@H](C)c5cccc(C(F)(F)CO)c5F)nc(C)nc4cc3OC[C@H]2C1

>  <pIC50>
8.57

$$$$
>  <molecule>
Cc1nc(N[C@H](C)c2cc(N)cc(C(F)(F)F)c2)c2cc3c(cc2n1)OC[C@H]1COCCN31

>  <pIC50>
8.22

$$$$
>  <molecule>
Cc1nc(N[C@H](C)c2cc(N)cc(C(F)(F)F)c2)c2cc3c(cc2n1)OC[C@H]1CN(C)CCN31

>  <pIC50>
8.14

$$$$

These measurements were taken from ChEMBL document CHEMBL5236589.
